protocol.conditions: 0.01 M PBS mobile phase, 12 pH points 4.05 to 8.06, monovalent equations
Method: k′app=k′HA([H^+]+^surfaceKa)/([H^+]+^bulkKa) Eq. 7 where k′app is the capacity factor of the test compound measured at different mobile phase pH conditions, and k′HA is the capacity factor of the non-ionized species. Nonlinear fitting of the three experimentally measured parameters [H+], k′app, and k′HA to eq. […] The retention time of each compound was determined using the Esquire Data Analysis software. […] [H^+] was calculated from the mobile phase pH values used for the experiment. […]
The entries below come with measured bulkpKa (Exp.) values attached.
test.readout: bulkpKa (Exp.)

{"compound": "CCn1cc(C(=O)O)c(=O)c2ccc(C)nc21", "test.readout": "bulkpKa (Exp.)", "experimental.value": 6.03}
{"compound": "CC[C@H]1[C@@H]2C[C@H]3[C@@H]4N(C)c5ccccc5[C@]45C[C@@H]([C@H]2[C@H]5O)N3[C@@H]1O", "test.readout": "bulkpKa (Exp.)", "experimental.value": 7.43}
{"compound": "COc1cc2c(cc1OC)[C@@]13CCN4CC5=CCO[C@H]6CC(=O)N2[C@H]1[C@H]6[C@H]5C[C@H]43", "test.readout": "bulkpKa (Exp.)", "experimental.value": 7.9}
{"compound": "CC(=O)CC(c1ccccc1)c1c(O)c2ccccc2oc1=O (stereo not shown)", "test.readout": "bulkpKa (Exp.)", "experimental.value": 5.43}
{"compound": "C=C1CC[C@@]2(O)[C@H]3Cc4ccc(O)c5c4[C@@]2(CCN3CC2CC2)[C@H]1O5", "test.readout": "bulkpKa (Exp.)", "experimental.value": 7.81}
{"compound": "CC1COc2c(N3CCN(C)CC3)c(F)cc3c(=O)c(C(=O)O)cn1c23 (stereo not shown)", "test.readout": "bulkpKa (Exp.)", "experimental.value": 6.84}
{"compound": "CN(C)CCOC(C)(c1ccccc1)c1ccccn1 (stereo not shown)", "test.readout": "bulkpKa (Exp.)", "experimental.value": 7.93}
{"compound": "COc1cc(NS(=O)(=O)c2ccc(N)cc2)nc(OC)n1", "test.readout": "bulkpKa (Exp.)", "experimental.value": 6.02}
{"compound": "C=CCN1CC[C@]23c4c5ccc(O)c4O[C@H]2[C@@H](O)C=C[C@H]3[C@H]1C5", "test.readout": "bulkpKa (Exp.)", "experimental.value": 7.63}
{"compound": "C=CCN1CC[C@]23c4c5ccc(O)c4O[C@H]2C(=O)CC[C@@]3(O)[C@H]1C5", "test.readout": "bulkpKa (Exp.)", "experimental.value": 7.84}
